Provide the recorded half-life for the entries that follow.
# experimentalDetails: Pharmacokinetics in rat after intravenous administration
# Format: in vivo
# measurementContext: male rats, intravenous 0.5 mg/kg bolus, plasma, non-compartmental analysis
# Experimental: Male rats (n=3) were given an intravenous 0.5 mg/kg bolus dose of test article dissolved in plasma with 1% DMSO and 1% ethanol (Ex A3 only). Serial blood samples were collected up to 24 hours post-dose. Plasma was harvested from blood samples and stored frozen until sample analysis. Test article plasma concentrations were analyzed by LC/MS/MS.

Q. Quick one: half-life of CCCNC(=O)Nc1cccc(S(=O)(=O)Nc2cccc([C@@H](CC(=O)O)NC(=O)Nc3ccc(NC(=O)NCCN(C)CCN(C)CCN(C)CC(=O)N[C@@H](CC(N)=O)C(=O)N4CCC[C@H]4C(=O)N[C@H](C(=O)O[C@]4(CC)C(=O)OCc5c4cc4n(c5=O)Cc5c-4nc4ccccc4c5CC)C(C)C)cc3)c2)c1.Cl.Cl.Cl [Compound B4b] ?
A. 5 to 10 h

Q. Quick one: half-life of CCCNC(=O)Nc1cccc(S(=O)(=O)Nc2cccc([C@@H](CC(=O)O)NC(=O)Nc3ccc(NC(=O)NCCOCCOCCOCCC(=O)NCCCC[C@H](NC(=O)CCOCCOCCOCCNC(=O)Nc4ccc(NC(=O)N[C@H](CC(=O)O)c5cccc(NS(=O)(=O)c6cccc(NC(=O)NCCC)c6)c5)cc4)C(=O)NCCOCCOCCOCCC(=O)N[C@@H](CC(=O)O)C(=O)N4CCC[C@H]4C(=O)N[C@H](C(=O)O[C@]4(CC)C(=O)OCc5c4cc4n(c5=O)Cc5c-4nc4ccccc4c5CC)C(C)C)cc3)c2)c1 [Compound A3] ?
A. 10 to 15 h

Q. Quick one: half-life of CCCNC(=O)Nc1cccc(S(=O)(=O)Nc2cccc([C@@H](CC(=O)O)NC(=O)Nc3ccc(NC(=O)NCCOCCOCCOCCC(=O)N[C@@H](CCCCNC(=O)CCCC(=O)NCCOCCOCCOCCC(=O)N[C@@H](CC(=O)O)C(=O)N4CCC[C@H]4C(=O)N[C@H](C(=O)O[C@]4(CC)C(=O)OCc5c4cc4n(c5=O)Cc5c-4nc4ccccc4c5CC)C(C)C)C(=O)NCCC(=O)O)cc3)c2)c1 [Compound E1] ?
A. 5 to 10 h

Q. Quick one: half-life of CCCNC(=O)Nc1cccc(S(=O)(=O)Nc2cccc([C@@H](CC(=O)O)NC(=O)Nc3ccc(NC(=O)NCCOCCOCCOCCC(=O)N[C@@H](CCCCNC(=O)CCCC(=O)NCCOCCOCCOCCC(=O)N[C@@H](CC(=O)O)C(=O)N4CCC[C@H]4C(=O)N[C@H](C(=O)O[C@]4(CC)C(=O)OCc5c4cc4n(c5=O)Cc5c-4nc4ccccc4c5CC)C(C)C)C(=O)NCCCCCCCC(=O)O)cc3)c2)c1 [Compound E2] ?
A. 5 to 10 h

###

# Test system: SUM149
# experimentalDetails: Cytotoxicity in vitro in the presence and absence of elastase (MTT assay)
# Type: cell-based
# measurementContext: SUM149 cells, compound alone (no elastase), 72 h
testReadout: IC50

Q. Quick one: IC50 of `CCCNC(=O)Nc1cccc(S(=O)(=O)Nc2cccc([C@@H](CC(=O)O)N(C(=O)NC(N)=O)c3ccc(NCCCCOC(=O)C[C@H](NC(=O)CCOCCOCCOCCNc4ccc(N(C(=O)NC(N)=O)[C@H](CC(=O)O)c5cccc(NS(=O)(=O)c6cccc(NC(=O)NCCC)c6)c5)cc4)C(=O)N4CCC[C@H]4C(=O)N[C@H](C(=O)O[C@]4(CC)C(=O)OCc5c4cc4n(c5=O)Cc5c-4nc4ccccc4c5CC)C(C)C)cc3)c2)c1` ?
A. 0.0011 to 0.01 µM

Q. Quick one: IC50 of `CCCNC(=O)Nc1cccc(S(=O)(=O)Nc2cccc([C@@H](CC(=O)O)NC(=O)Nc3ccc(NC(=O)NCCOCCOCCOCCC(=O)N[C@@H](CC(=O)OCCCN(C)C)C(=O)N4CCC[C@H]4C(=O)N[C@H](C(=O)O[C@]4(CC)C(=O)OCc5c4cc4n(c5=O)Cc5c-4nc4ccccc4c5CC)C(C)C)cc3)c2)c1` ?
A. 0.0001 to 0.001 µM

Q. Quick one: IC50 of `CCCNC(=O)Nc1cccc(S(=O)(=O)Nc2cccc([C@@H](CC(=O)O)NC(=O)Nc3ccc(NC(=O)NCCN(C)CCN(C)CCN(C)CC(=O)N[C@@H](CC(N)=O)C(=O)N4CCC[C@H]4C(=O)N[C@H](C(=O)O[C@]4(CC)C(=O)OCc5c4cc4n(c5=O)Cc5c-4nc4ccccc4c5CC)C(C)C)cc3)c2)c1` ?
A. 0.0011 to 0.01 µM

Q. Quick one: IC50 of `CCCNC(=O)Nc1cccc(S(=O)(=O)Nc2cccc([C@@H](CC(=O)O)NC(=O)Nc3ccc(NC(=O)NCCCC[C@H](NC(=O)Nc4ccc(NC(=O)N[C@H](CC(=O)O)c5cccc(NS(=O)(=O)c6cccc(NC(=O)NCCC)c6)c5)cc4)C(=O)NCCOCCOCCOCCC(=O)N[C@@H](CC(=O)O)C(=O)N4CCC[C@H]4C(=O)N[C@H](C(=O)O[C@]4(CC)C(=O)OCc5c4cc4n(c5=O)Cc5c-4nc4ccccc4c5CC)C(C)C)cc3)c2)c1` ?
A. 0.01 to 0.1 µM

Q. Quick one: IC50 of `CCCNC(=O)Nc1cccc(S(=O)(=O)Nc2cccc([C@@H](CC(=O)O)NC(=O)Nc3ccc(NC(=O)NCCC(=O)NCCCC[C@H](NC(=O)CCNC(=O)Nc4ccc(NC(=O)N[C@H](CC(=O)O)c5cccc(NS(=O)(=O)c6cccc(NC(=O)NCCC)c6)c5)cc4)C(=O)NCCOCCOCCOCCC(=O)N[C@@H](CC(=O)O)C(=O)N4CCC[C@H]4C(=O)N[C@H](C(=O)O[C@]4(CC)C(=O)OCc5c4cc4n(c5=O)Cc5c-4nc4ccccc4c5CC)C(C)C)cc3)c2)c1` ?
A. 0.01 to 0.1 µM

Q. Quick one: IC50 of `CCCNC(=O)Nc1cccc(S(=O)(=O)Nc2cccc([C@@H](CC(=O)O)NC(=O)Nc3ccc(NC(=O)N(C)CCN(C)CCN(C)CC(=O)N[C@@H](CC(N)=O)C(=O)N4CCC[C@H]4C(=O)N[C@H](C(=O)O[C@]4(CC)C(=O)OCc5c4cc4n(c5=O)Cc5c-4nc4ccccc4c5CC)C(C)C)cc3)c2)c1` ?
A. 0.01 to 0.1 µM
